Tested on: A375 melanoma cells
Test: SRB cytotoxicity assay, A375
Assay type: cell-based
Conditions: Homo sapiens, A-375; SRB assay, 96 h incubation, mean ± SD; read-out: IC50 A375
experimental.readout: pIC50
Formally, pIC50 is defined as -log10 of the concentration c, with c in mol/L.

[[record]]
compound = "C=C(C)C1CCC2(COC(=O)CCC(=O)NCCS(N)(=O)=O)CCC3(C)C(CCC4C5(C)CCC(OC(C)=O)C(C)(C)C5CCC43C)C12 (stereo not shown)"
recorded_number = 5.03


IN: If you can, please state the reported pIC50 value of C=C(C)[C@@H]1CC[C@]2(C(=O)O)CC[C@]3(C)[C@H](CC[C@@H]4[C@@]5(C)CC[C@H](O)C(C)(C)[C@@H]5CC[C@]43C)[C@@H]12 .
OUT: 4.88
